Target: Multidrug efflux pump subunit AcrB (Escherichia coli (strain K12))
Sequence (whole entry): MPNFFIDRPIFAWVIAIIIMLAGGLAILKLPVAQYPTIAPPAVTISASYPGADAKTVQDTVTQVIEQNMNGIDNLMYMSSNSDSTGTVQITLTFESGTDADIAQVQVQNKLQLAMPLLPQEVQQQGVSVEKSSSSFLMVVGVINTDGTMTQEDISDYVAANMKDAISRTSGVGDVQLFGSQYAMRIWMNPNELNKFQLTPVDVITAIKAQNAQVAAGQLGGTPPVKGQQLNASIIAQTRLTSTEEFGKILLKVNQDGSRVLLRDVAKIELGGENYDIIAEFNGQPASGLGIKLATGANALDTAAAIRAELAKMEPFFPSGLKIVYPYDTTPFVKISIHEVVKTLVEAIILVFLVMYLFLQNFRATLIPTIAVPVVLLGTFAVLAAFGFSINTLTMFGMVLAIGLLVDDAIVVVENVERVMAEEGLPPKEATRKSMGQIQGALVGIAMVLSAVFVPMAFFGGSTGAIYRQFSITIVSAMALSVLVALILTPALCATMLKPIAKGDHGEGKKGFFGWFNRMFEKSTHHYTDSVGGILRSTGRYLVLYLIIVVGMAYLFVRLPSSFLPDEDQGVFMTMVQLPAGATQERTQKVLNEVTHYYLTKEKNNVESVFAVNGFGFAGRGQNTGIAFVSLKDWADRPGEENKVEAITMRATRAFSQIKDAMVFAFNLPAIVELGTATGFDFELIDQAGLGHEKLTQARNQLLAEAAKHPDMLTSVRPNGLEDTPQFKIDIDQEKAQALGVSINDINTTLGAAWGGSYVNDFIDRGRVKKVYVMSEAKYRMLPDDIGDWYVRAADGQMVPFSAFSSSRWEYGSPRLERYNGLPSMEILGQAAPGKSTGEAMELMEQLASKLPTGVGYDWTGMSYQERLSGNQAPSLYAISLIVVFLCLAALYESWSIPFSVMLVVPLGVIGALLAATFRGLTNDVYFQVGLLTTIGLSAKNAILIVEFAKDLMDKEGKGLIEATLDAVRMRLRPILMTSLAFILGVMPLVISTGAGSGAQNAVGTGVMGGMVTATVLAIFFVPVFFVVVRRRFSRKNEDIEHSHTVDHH
Experiment: Inhibition of AcrB in Escherichia coli BW25113 assessed as potentiation of erythromycin induced antibacterial activity by measuring erythromycin MIC at 64 ug/ml measured after 18 hrs by checkerboard titration method (reference value: 64 ug/ml)
Conditions: dose 64.0 µg/ml
We begin with a simple list: items and their reported MIC.
property: MIC

molecule	target-entity	property	reading
O=C(NCCc1ccc(O)c(O)c1)c1ccc(C(F)(F)F)cc1	Multidrug efflux pump subunit AcrB (Escherichia coli (strain K12))	MIC	64 µg/mL
Oc1ccc(CCCCc2ccc(O)c(O)c2)cc1O	Multidrug efflux pump subunit AcrB (Escherichia coli (strain K12))	MIC	64 µg/mL
Nc1ccccc1C(=O)NCCc1ccc(O)c(O)c1	Multidrug efflux pump subunit AcrB (Escherichia coli (strain K12))	MIC	64 µg/mL
Oc1ccc(CCCCCCc2ccc(O)c(O)c2)cc1O	Multidrug efflux pump subunit AcrB (Escherichia coli (strain K12))	MIC	64 µg/mL
Oc1ccc(CCCCCCCc2ccc(O)c(O)c2)cc1O	Multidrug efflux pump subunit AcrB (Escherichia coli (strain K12))	MIC	64 µg/mL
Oc1ccc(CCCCCc2ccc(O)c(O)c2)cc1O	Multidrug efflux pump subunit AcrB (Escherichia coli (strain K12))	MIC	64 µg/mL
Nc1cc(N)cc(C(=O)NCCc2ccc(O)c(O)c2)c1	Multidrug efflux pump subunit AcrB (Escherichia coli (strain K12))	MIC	32 µg/mL
O=C(NCCc1ccc(O)c(O)c1)c1ccc(Br)cc1	Multidrug efflux pump subunit AcrB (Escherichia coli (strain K12))	MIC	64 µg/mL
Oc1ccc(CCCCc2ccccc2O)cc1O	Multidrug efflux pump subunit AcrB (Escherichia coli (strain K12))	MIC	64 µg/mL
Oc1ccc(CCCCc2cc3cccc4ccc5cccc2c5c43)cc1O	Multidrug efflux pump subunit AcrB (Escherichia coli (strain K12))	MIC	32 µg/mL
Oc1ccc(CCCCc2ccc(Cl)cc2)cc1O	Multidrug efflux pump subunit AcrB (Escherichia coli (strain K12))	MIC	64 µg/mL
Oc1ccc(CCCc2ccc(O)c(O)c2)cc1O	Multidrug efflux pump subunit AcrB (Escherichia coli (strain K12))	MIC	32 µg/mL
O=C(NCCc1ccc(O)c(O)c1)c1ccc(O)c(O)c1	Multidrug efflux pump subunit AcrB (Escherichia coli (strain K12))	MIC	32 µg/mL
C[C@H](Cc1ccc(O)c(O)c1)[C@@H](C)Cc1ccc(O)c(O)c1 [MASOPROCOL]	Multidrug efflux pump subunit AcrB (Escherichia coli (strain K12))	MIC	64 µg/mL
Oc1ccc(CCCCc2cc(O)c(O)c(O)c2)cc1O	Multidrug efflux pump subunit AcrB (Escherichia coli (strain K12))	MIC	32 µg/mL
